- Tested on: HDQ-P1 (Breast Carcinoma)
- Protocol Summary: Bliss excess, mean over the matrix (fraction); higher = more synergy;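 note: after 72 h of two-drug dosing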
# Bliss excess per entry
The answer should be a number; do not append a unit.

Some compounds with known Bliss excess results, for comparison:
- Compound: "C[C@@H](c1ccc2nccn2c1)n1nnc2ncc(-c3cnn(C)c3)nc21 [Savolitinib] + CC1(C)CCC(CN2CCN(c3ccc(C(=O)NS(=O)(=O)c4ccc(NCC5CCOCC5)c([N+](=O)[O-])c4)c(Oc4cnc5[nH]ccc5c4)c3)CC2)=C(c2ccc(Cl)cc2)C1 [Venetoclax] (first compound max 1 µM, 7x7, partner max 1 µM)"
  Bliss excess: -0.085
- Compound: "COc1cccc(OCCCN)c1-c1cc(Nc2cnc(C#N)cn2)n[nH]1 [Prexasertib] + CN(C)CCCOc1ccc(-c2ccc3ncc4c(c3c2)n(C2CCOCC2)c(=O)n4C)cn1 [AZD0156] (first compound max 1 µM, 7x7, partner max 1 µM)"
  Bliss excess: 0.023
- Compound: "CC1(C)CCC(CN2CCN(c3ccc(C(=O)NS(=O)(=O)c4ccc(NCC5CCOCC5)c([N+](=O)[O-])c4)c(Oc4cnc5[nH]ccc5c4)c3)CC2)=C(c2ccc(Cl)cc2)C1 [Venetoclax] + C1CN(CCC1(C(=O)N[C@@H](CCO)C2=CC=C(C=C2)Cl)N)C3=NC=NC4=C3C=CN4 [Capivasertib] (first compound max 1 µM, 7x7, partner max 3 µM)"
  Bliss excess: -0.0234

Field: next compound
Sample CC(=O)c1c(C)c2cnc(Nc3ccc(N4CCNCC4)cn3)nc2n(C2CCCC2)c1=O [Palbociclib] + Cn1cnc2c(F)c(Nc3ccc(Br)cc3Cl)c(C(=O)NOCCO)cc21 [Selumetinib] (first compound max 10 µM, 7x7, partner max 10 µM) — what was its Bliss excess?
-0.0555

---

- System: CAMA-1 (Breast Carcinoma)
- Protocol Summary: Bliss excess, mean over the matrix (fraction); higher = more synergy
Observation Type: Bliss excess
The answer should be a number; do not append a unit.

Some molecules with known Bliss excess results, for comparison:
- Molecule: "N#Cc1cnc(Nc2cc(NC[C@H]3CNCCO3)c(C(F)(F)F)cn2)cn1 [SRA737] + Nc1ccn([C@@H]2O[C@H](CO)[C@@H](O)C2(F)F)c(=O)n1 [Gemcitabine] (first compound max 10 µM, 7x7, partner max 0.3 µM)"
  Measured Target: "CAMA-1 (Breast Carcinoma)"
  Reading: 0.0294
- Molecule: "CS(=O)(=O)CCNCc1ccc(-c2ccc3ncnc(Nc4ccc(OCc5cccc(F)c5)c(Cl)c4)c3c2)o1 [Lapatinib] + C[C@@H](Oc1cc(-c2cnn(C3CCNCC3)c2)cnc1N)c1c(Cl)ccc(F)c1Cl [Crizotinib] (first compound max 10 µM, 7x7, partner max 10 µM)"
  Measured Target: "CAMA-1 (Breast Carcinoma)"
  Reading: -0.0178
- Molecule: "N#Cc1cnc(Nc2cc(NC[C@H]3CNCCO3)c(C(F)(F)F)cn2)cn1 [SRA737] + C=CCn1c(=O)c2cnc(Nc3ccc(N4CCN(C)CC4)cc3)nc2n1-c1cccc(C(C)(C)O)n1 [AZD1775] (first compound max 10 µM, partner max 1 µM)"
  Measured Target: "CAMA-1 (Breast Carcinoma)"
  Reading: 0.0672

Field: next molecule
Sample CN(C)CCCOc1ccc(-c2ccc3ncc4c(c3c2)n(C2CCOCC2)c(=O)n4C)cn1 [AZD0156] + C=CCn1c(=O)c2cnc(Nc3ccc(N4CCN(C)CC4)cc3)nc2n1-c1cccc(C(C)(C)O)n1 [AZD1775] (first compound max 1 µM, partner max 1 µM) — what was its Bliss excess?
-0.0726
